Just for reference, patent US20230139171A1 is where these values come from.

biological target: human TLR7 (Homo sapiens); construct: host or cells: HEK-Blue cells; test: TLR7 inhibition reporter assay (HEK-Blue cells, SEAP reporter, gardiquimod stimulation); assay type: cell-based; conditions: HEK-Blue cells overexpressing human TLR7, SEAP reporter, gardiquimod 7.5 μM; read-out: TLR7 IC50
Sequence (Q9NYK1 27-1049): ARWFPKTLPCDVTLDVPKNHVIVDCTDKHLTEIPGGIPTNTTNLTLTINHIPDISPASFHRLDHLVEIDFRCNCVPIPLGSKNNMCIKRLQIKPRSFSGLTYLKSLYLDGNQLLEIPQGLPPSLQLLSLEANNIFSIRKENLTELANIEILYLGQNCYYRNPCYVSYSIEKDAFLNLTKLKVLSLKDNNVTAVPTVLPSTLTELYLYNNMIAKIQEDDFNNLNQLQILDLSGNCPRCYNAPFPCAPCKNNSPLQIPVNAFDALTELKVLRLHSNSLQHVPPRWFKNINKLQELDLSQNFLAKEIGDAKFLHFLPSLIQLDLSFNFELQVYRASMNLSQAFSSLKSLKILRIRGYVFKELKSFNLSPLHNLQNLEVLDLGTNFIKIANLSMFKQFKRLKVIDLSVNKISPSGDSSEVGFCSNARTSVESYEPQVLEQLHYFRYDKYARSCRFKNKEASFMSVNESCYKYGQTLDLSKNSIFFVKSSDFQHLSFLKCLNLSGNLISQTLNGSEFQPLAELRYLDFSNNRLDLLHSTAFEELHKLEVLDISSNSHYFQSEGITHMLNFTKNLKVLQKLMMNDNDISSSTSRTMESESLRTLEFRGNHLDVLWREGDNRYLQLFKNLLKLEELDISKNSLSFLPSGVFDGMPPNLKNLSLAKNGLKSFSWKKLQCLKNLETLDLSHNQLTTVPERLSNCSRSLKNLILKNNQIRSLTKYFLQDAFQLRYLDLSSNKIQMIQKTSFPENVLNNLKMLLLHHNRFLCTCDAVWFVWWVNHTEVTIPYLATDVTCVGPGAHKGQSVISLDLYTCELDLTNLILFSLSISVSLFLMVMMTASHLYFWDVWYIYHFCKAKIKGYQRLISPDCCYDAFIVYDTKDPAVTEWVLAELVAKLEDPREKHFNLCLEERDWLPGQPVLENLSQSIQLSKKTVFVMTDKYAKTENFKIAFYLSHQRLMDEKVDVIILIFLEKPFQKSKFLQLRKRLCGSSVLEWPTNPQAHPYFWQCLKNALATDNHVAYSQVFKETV
pIC50: −log10 of the molar value.
property_name: pIC50

(a) Cc1c(-c2[nH]c3sc(C4CCN(CC(=O)N(C)C)CC4)nc3c2C(C)C)cn(C)c(=O)c1C
(b) Cc1c(-c2[nH]c3sc(C4CCN(CCS(C)(=O)=O)CC4)nc3c2C(C)C)cn2ncnc2c1C
Qu. Select one. Lower pIC50: a or b Identify your selection by its label.
Ans. a

(P) COc1cc(-c2[nH]c3sc(C4CCC(N5CCCC5)CC4)nc3c2C(C)C)cn2ncnc12 (single isomer, unassigned) [Example 98]
(Q) Cc1c(-c2[nH]c3sc(C4CCC(N5CCOCC5)CC4)nc3c2C(C)C)cn2ncnc2c1C (single isomer, unassigned) [Example 213]
(R) Cc1c(-c2[nH]c3sc(C4CCC(NC5CCOCC5)CC4)nc3c2C(C)C)cn(C)c(=O)c1C (single isomer, unassigned) [Example 250]
(S) COc1cc(-c2[nH]c3sc(C4CCC(N(C)CC(=O)N(C)C)CC4)nc3c2C(C)C)cn2ncnc12 (single isomer, unassigned) [Example 162]
(T) COc1cc(-c2[nH]c3sc(C4CCC(NC(C)C)CC4)nc3c2C(C)C)cn2ncnc12 (single isomer, unassigned) [Example 78]
Qu. Exam item: list the entries in increasing order of pIC50. API: response body holds the labels in the requested order.
Ans. R, Q, S, T, P

(A) Cc1c(-c2[nH]c3sc(N4CCN(C5CCN(C(C)C)CC5)C[C@H]4C)nc3c2C(C)C)cn2ncnc2c1C
(B) Cc1c(-c2[nH]c3sc(C4CCC(NCC5(S(C)(=O)=O)CC5)CC4)nc3c2C(C)C)cn2ncnc2c1C (single isomer, unassigned) [Example 214]
(C) Cc1c(-c2[nH]c3sc(C4CCC(N5CCC5)CC4)nc3c2C(C)C)cn2ncnc2c1C (single isomer, unassigned) [Example 216]
(D) Cc1cc(-c2[nH]c3sc(C(=O)NC4COC4)nc3c2C(C)C)cn2ncnc12
Qu. Exam item: list the entries in increasing order of pIC50. API: response body holds the labels in the requested order.
Ans. D, A, B, C
(D: 6.66, A: 8.16, B: 8.86, C: 9.14)
